Data credit: patent US10759796B2

Test: Mouse brain uptake assay (pharmacokinetics and brain penetration after IV administration), 0-1 h, 3 time points
Assay type: in vivo, Male CD1 Mice
Conditions: male, CD1, brain and plasma; Mouse, 3 mg/kg IV, 0-1 h; read-out: Kp, uu (unbound brain/unbound plasma drug concentration ratio)
Property: Kp uu

molecule_smiles=Cc1cccnc1[C@@H]1CCC[C@H](c2cn3c(N4CCN(C)CC4)cccc3n2)N1 reading=0.05

(P) Cc1cccnc1[C@@H]1CCC[C@H](c2nc3cccc(N4CCC(N(C)C)CC4)n3c2Cl)N1C
(Q) Cc1cccnc1[C@@H]1CCC[C@H](c2nc3cccc(N4CCN(C)CC4)n3c2Cl)N1
(R) Cc1cccnc1[C@@H]1CCC[C@H](c2nc3cccc(N4CCN(C)CC4)n3c2Cl)N1C
Given 3 compounds, produce a descending ranking by Kp uu. Write the labels out in the order the request specifies.
R, Q, P
(R: 0.43, Q: 0.21, P: 0.08)

---

Catalogue of molecules with associated pIC50
Biological target: CXCR-4 transfected U87 cell line (U87.CXCR4) (Homo sapiens (Human), UniProt P61073)
Sequence (P61073 whole entry): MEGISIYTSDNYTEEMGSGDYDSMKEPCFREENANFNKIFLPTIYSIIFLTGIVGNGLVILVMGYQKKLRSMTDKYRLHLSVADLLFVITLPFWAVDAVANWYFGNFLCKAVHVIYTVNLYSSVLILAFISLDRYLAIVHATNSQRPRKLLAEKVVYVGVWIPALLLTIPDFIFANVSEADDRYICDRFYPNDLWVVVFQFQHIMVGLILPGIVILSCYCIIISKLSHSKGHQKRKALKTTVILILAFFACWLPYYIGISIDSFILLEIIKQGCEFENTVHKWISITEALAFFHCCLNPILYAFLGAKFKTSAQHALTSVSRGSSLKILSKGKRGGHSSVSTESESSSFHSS
Assay: Intracellular CXCL-12-induced calcium mobilization assay (FLIPR)
Settings: U87.CXCR4 cells, CXCL-12 25-50 ng/mL; read-out: IC50 CXCL-12 Ca2+ flux U87.CXCR4+
pIC50: −log10 of the molar value.

Below: 5 molecules and their reported pIC50.
molecule=CO[C@@H](c1c([C@H]2CCC[C@@H](c3ncccc3C)N2C)nc2ccccn12)C1CCN(C)CC1 study_target="CXCR-4 transfected U87 cell line (U87.CXCR4) (Homo sapiens (Human), UniProt P61073)" property=pIC50 reading="≤ 6.00"
molecule=CN1CCN(c2cccc3nc([C@H]4CCC[C@@H](c5ncccc5Cl)N4C)c(CO)n23)CC1 study_target="CXCR-4 transfected U87 cell line (U87.CXCR4) (Homo sapiens (Human), UniProt P61073)" property=pIC50 reading="7.00 to 11.00"
molecule=Cc1cccnc1[C@@H]1CCC[C@H](c2nc3ccccn3c2COC2CCN(C)CC2)N1C study_target="CXCR-4 transfected U87 cell line (U87.CXCR4) (Homo sapiens (Human), UniProt P61073)" property=pIC50 reading="≤ 6.00"
molecule=CCN1[C@@H](c2nc3cccc(N4CCN(C)CC4)n3c2Br)CCC[C@H]1c1ncccc1C study_target="CXCR-4 transfected U87 cell line (U87.CXCR4) (Homo sapiens (Human), UniProt P61073)" property=pIC50 reading="7.00 to 11.00"
molecule=Cc1cccnc1[C@@H]1CCC[C@H](c2nc3cccc(N4CCN(C)CC4)n3c2Cl)N1C study_target="CXCR-4 transfected U87 cell line (U87.CXCR4) (Homo sapiens (Human), UniProt P61073)" property=pIC50 reading="7.00 to 11.00"

Request body: readout pIC50, system CXCR-4 transfected U87 cell line (U87.CXCR4) (Homo sapiens (Human), UniProt P61073), query "Clc1cccnc1[C@@H]1CCC[C@H](c2nc3cccc(N4CCNC5(CC5)C4)n3c2Cl)N1" . Return the value.
≤ 6.00

Query the reported pIC50 for CXCR-4 transfected U87 cell line (U87.CXCR4) (Homo sapiens (Human), UniProt P61073); item: Cc1cccnc1[C@H]1CCC[C@@H](c2nc3cccc(N4CCN(C)CC4)n3c2C)N1 (stereo in doubt)
7.00 to 11.00

For the record "CN1CCN(c2cccc3nc([C@H]4CCC[C@@H](c5ncccc5C(F)(F)F)N4C)c(Cl)n23)CC1" , what value of pIC50 is listed for CXCR-4 transfected U87 cell line (U87.CXCR4) (Homo sapiens (Human), UniProt P61073)?
≤ 6.00

// lookup pIC50 | system=CXCR-4 transfected U87 cell line (U87.CXCR4) (Homo sapiens (Human), UniProt P61073) | key= "Cc1cccnc1[C@@H]1CCC[C@H](c2cn3c(N4CC5CCC(C4)N5)cccc3n2)N1C"
6.00 to 7.00

Kindly state the measured pIC50 obtained for "CCN1CCN(c2cccc3nc([C@H]4CCC[C@@H](c5ncccc5Cl)N4C)cn23)CC1" with CXCR-4 transfected U87 cell line (U87.CXCR4) (Homo sapiens (Human), UniProt P61073).
6.00 to 7.00

Item "Cc1cccnc1[C@@H]1CCC[C@H](c2nc3cccc(N4CCN(C(C)C)CC4)n3c2Br)N1C" with CXCR-4 transfected U87 cell line (U87.CXCR4) (Homo sapiens (Human), UniProt P61073) - pIC50?
6.00 to 7.00

pIC50 of "CCOCc1c([C@H]2CCC[C@@H](c3ncccc3C)N2C)nc2cccc(N3CCN(C(C)C)CC3)n12" on CXCR-4 transfected U87 cell line (U87.CXCR4) (Homo sapiens (Human), UniProt P61073)?
7.00 to 11.00

Provide value of pIC50 for this record tested with CXCR-4 transfected U87 cell line (U87.CXCR4) (Homo sapiens (Human), UniProt P61073): "COc1cccnc1[C@@H]1CCC[C@H](c2nc3cccc(N4CCN(C)CC4)n3c2Cl)N1"
≤ 6.00

Entry Cc1cccnc1[C@H]1CCC[C@@H](c2nc3ccccn3c2CCCN)N1C (stereo in doubt) , system CXCR-4 transfected U87 cell line (U87.CXCR4) (Homo sapiens (Human), UniProt P61073): what pIC50 was measured?
6.00 to 7.00

Which pIC50 is reported with CXCR-4 transfected U87 cell line (U87.CXCR4) (Homo sapiens (Human), UniProt P61073) for this entry: "Cc1cccnc1[C@@H]1CCC[C@H](c2cn3c(N4CCNC5(CC5)C4)cccc3n2)N1C" ?
7.00 to 11.00

What reported pIC50 corresponds to "CN1CCN(c2cccc3nc([C@H]4CCC[C@@H](c5ncccc5Cl)N4C)c(Cl)n23)CC1" on CXCR-4 transfected U87 cell line (U87.CXCR4) (Homo sapiens (Human), UniProt P61073)?
7.00 to 11.00

CXCR-4 transfected U87 cell line (U87.CXCR4) (Homo sapiens (Human), UniProt P61073) / pIC50 / "Cc1cccnc1[C@@H]1CCC[C@H](c2nc3ccccn3c2N2CCN(C)CC2)N1C" : value?
7.00 to 11.00

// map "CCN1CCN(c2cccc3nc([C@H]4CCC[C@@H](c5ncccc5C(C)C)N4C)cn23)CC1" to recorded pIC50 (system: CXCR-4 transfected U87 cell line (U87.CXCR4) (Homo sapiens (Human), UniProt P61073))
≤ 6.00

Form field: pIC50 recorded for "Cc1cccnc1[C@@H]1CCC[C@H](c2cn3ccccc3n2)N1CCc1cnccn1" with CXCR-4 transfected U87 cell line (U87.CXCR4) (Homo sapiens (Human), UniProt P61073) (enter value)
7.00 to 11.00

Value wanted: pIC50 (CXCR-4 transfected U87 cell line (U87.CXCR4) (Homo sapiens (Human), UniProt P61073)) of entry "Cc1cccnc1[C@@H]1CCC[C@H](c2cn3c(N4CCN(C)C(=O)C4)cccc3n2)N1"
≤ 6.00

What measured pIC50 is associated with "CN1CC2CCC(C1)N2c1cccc2nc([C@H]3CCC[C@@H](c4ncccc4Cl)N3)cn12" on CXCR-4 transfected U87 cell line (U87.CXCR4) (Homo sapiens (Human), UniProt P61073)?
≤ 6.00

Recall the recorded pIC50 for "Cc1cccnc1[C@@H]1CCC[C@H](c2cn3c(N4CCNCC4)cccc3n2)N1C" with CXCR-4 transfected U87 cell line (U87.CXCR4) (Homo sapiens (Human), UniProt P61073) and state it.
7.00 to 11.00

---

Below is a list of entries, each paired with its recorded IC50 value.
Molecular target: CXCR-4 transfected U87 cell line (U87.CXCR4) (Homo sapiens (Human), UniProt P61073)
Assay: Intracellular CXCL-12-induced calcium mobilization assay (FLIPR)
Type: cell-based
Conditions: U87.CXCR4 cells, CXCL-12 25-50 ng/mL; read-out: IC50 CXCL-12 Ca2+ flux U87.CXCR4+

compound="Cc1cccnc1[C@@H]1CCC[C@H](c2cn3c(N4CCN(C)CC4)cccc3n2)N1 [Compound I-187]" property=IC50 reading="0.01 to 100 nM"
compound="Cc1cccnc1[C@@H]1CCC[C@H](c2nc3cccc(N4CCN(C)CC4)n3c2Br)N1C [Compound I-17]" property=IC50 reading="0.01 to 100 nM"
compound="Cc1cccnc1[C@@H]1CCC[C@H](c2cn3c(N4CCN(C5COC5)CC4)cccc3n2)N1C [Compound I-52]" property=IC50 reading="≥ 1000 nM"
compound="Cc1cccnc1[C@@H]1CCC[C@H](c2cn3c(N4CCN(C)CC4)cccc3n2)N1CCCO [Compound I-49]" property=IC50 reading="0.01 to 100 nM"
compound="Cc1cccnc1[C@H]1CCC[C@@H](c2nc3ccccn3c2-c2ccncc2)N1 [Compound I-207]" property=IC50 reading="≥ 1000 nM"
compound="Cc1cccnc1[C@@H]1CCC[C@H](c2cn3c(N4CCN(C)CC4=O)cccc3n2)N1 [Compound I-211]" property=IC50 reading="≥ 1000 nM"

Please look up its IC50: C/C=C/c1c([C@H]2CCC[C@@H](c3ncccc3C)N2C)nc2cccc(N3CCN(C)CC3)n12 [Compound I-141]
100 to 1000 nM

Consider the compound Cc1cccnc1[C@@H]1CCC[C@H](c2nc3ccccn3c2CCC#N)N1 [Compound I-219] and give its measured IC50.
≥ 1000 nM

What IC50 value was documented for this compound, CCOCc1c([C@H]2CCC[C@@H](c3ncccc3C)N2C)nc2cccc(N3CCN(CC)CC3)n12 [Compound I-56] ?
0.01 to 100 nM
